- assay: In vivo pharmacokinetic evaluation in mice
- Design: species or system ICR mice
- test_parameters: ICR, mouse, PO (30 mg/kg), plasma, read-out: AUC^1-24 h
readout_name: AUC (µg·h/mL)
Dear colleague, please return just the value in µg·h/mL, with no unit written.

In the examples that follow, each entry is paired with its recorded AUC.
compound	readout_name	readout_number
Cc1cc(C2=NOC(c3cc(Cl)cc(Cl)c3)(C(F)(F)F)C2)ccc1C(=O)NCC(=O)NC1CC1 (stereo not drawn) [Example 39 (Comparative Example 1), reference compound]	AUC	173
Cc1cc(C2=NO[C@@](c3cc(Cl)cc(C(F)(F)F)c3)(C(F)(F)F)C2)ccc1C(=O)NCC(=O)NC1(C(F)(F)F)CC1	AUC	233

Problem: Looking for the measured AUC of Cc1cc(C2=NO[C@@](c3cc(Cl)cc(Cl)c3)(C(F)(F)F)C2)ccc1C(=O)NCC(=O)NC1(C(F)(F)F)CC1 , can you help?
Result: 231
